Reference source for all entries: the NIST ThermoML archive (doi:10.1021/je7003098)

Below, each entry is listed alongside its reported mass density.
details: 313.15 K; 101.33 kPa; Liquid; Pycnometric method
± gives the expanded uncertainty stated by the source.
Kindly write the number and append the unit.

Consider the worked cases shown below.
CCCCCCCCCC[N+](C)(C)C.O=S(=O)([N-]S(=O)(=O)C(F)(F)F)C(F)(F)F: 1214.7 ± 26 kg/m3
CCCCCCCCCCCCCC[P+](CCCCCC)(CCCCCC)CCCCCC.O=S(=O)([N-]S(=O)(=O)C(F)(F)F)C(F)(F)F: 1042 ± 25 kg/m3

Q: Dear colleague, please send me the reported mass density for CCCCCC[N+](C)(C)C.O=S(=O)([N-]S(=O)(=O)C(F)(F)F)C(F)(F)F [hexyltrimethylammonium bis[(trifluoromethyl)sulfonyl]imide] when you can.
Result: 1299.5 ± 26 kg/m3

Q: Specify reported mass density for the molecule shown: CCCCCCCCCCCCCC[P+](CCCC)(CCCC)CCCC.CCCCCCCCCCCCc1ccccc1S(=O)(=O)[O-] [tributyl(tetradecyl)phosphonium 2-dodecylbenzenesulfonate]
Result: 931.1 ± 25 kg/m3

Q: Report measured mass density; entry is CCCC[P+](CC)(CCCC)CCCC.CCOP(=O)([O-])OCC [tributylethylphosphonium diethylphosphate]
Result: 989.7 ± 26 kg/m3

Q: Specify measured mass density for CCCCCCCCCCCCCC[P+](CCCCCC)(CCCCCC)CCCCCC.[Cl-] [trihexyl(tetradecyl)phosphonium chloride] .
Result: 875.4 ± 25 kg/m3

Q: // fetch mass density given entry CCCCCCCCCCCCCC[P+](CCCCCC)(CCCCCC)CCCCCC.N#C[N-]C#N [tetradecyl(trihexyl)phosphonium dicyanamide]
Result: 913.1 ± 25 kg/m3

* * *

Entries and their measured mass density follow.
details: 308.15 K; 101.33 kPa; Liquid; Pycnometric method
Numbers after ± are expanded uncertainties.
Record the result as number plus unit.

CCCCCCCCCCCCCC[P+](CCCC)(CCCC)CCCC.CCCCCCCCCCCCc1ccccc1S(=O)(=O)[O-] [tributyl(tetradecyl)phosphonium 2-dodecylbenzenesulfonate]: 933.7 ± 25 kg/m3

Q: Could you please provide reported mass density for CCCCCC[N+](C)(C)C.O=S(=O)([N-]S(=O)(=O)C(F)(F)F)C(F)(F)F [hexyltrimethylammonium bis[(trifluoromethyl)sulfonyl]imide] ? Thanks!
Result: 1304 ± 26 kg/m3

Q: Report mass density for CCCCCCCC[N+](C)(CCCCCCCC)CCCCCCCC.O=S(=O)([N-]S(=O)(=O)C(F)(F)F)C(F)(F)F
Result: 1077.3 ± 26 kg/m3

Q: Quote mass density reported for CCCCCCCCCCCCCC[P+](CCCCCC)(CCCCCC)CCCCCC.N#C[N-]C#N [tetradecyl(trihexyl)phosphonium dicyanamide] please.
Result: 916.3 ± 25 kg/m3

* * *

conditions: 318.15 K; 101.33 kPa; Liquid; Pycnometric method
test_readout: mass density (kg/m3)
Enter your answer as a number in kg/m3; do not include the unit.

Here is how some molecules turned out for mass density.
CCCCCC[N+](C)(C)CCC.O=S(=O)([N-]S(=O)(=O)C(F)(F)F)C(F)(F)F: 1269.9
CCCCCCCCCCCCCC[P+](CCCCCC)(CCCCCC)CCCCCC.[Cl-] [trihexyl(tetradecyl)phosphonium chloride]: 873.1
CCCC[N+](C)(C)C.O=S(=O)([N-]S(=O)(=O)C(F)(F)F)C(F)(F)F [butyltrimethylammonium bis(trifluoromethylsulfonyl)imide]: 1357.3

Now for the molecule whose mass density we want.
Q: Give mass density for the following molecule: CCCCCCCCCC[N+](C)(C)C.O=S(=O)([N-]S(=O)(=O)C(F)(F)F)C(F)(F)F
Result: 1210.6

* * *

settings: 333.15 K; 101.33 kPa; Liquid; Pycnometric method
test_readout: mass density (kg/m3)
Report the figure in kg/m3 without appending any unit label.

CCCCCCCC[N+](C)(CCCCCCCC)CCCCCCCC.O=S(=O)([N-]S(=O)(=O)C(F)(F)F)C(F)(F)F: 1061.1
CCCCCC[N+](C)(C)CCC.O=S(=O)([N-]S(=O)(=O)C(F)(F)F)C(F)(F)F: 1258.5
CCCCCCCCCCCCCC[P+](CCCCCC)(CCCCCC)CCCCCC.[Cl-] [trihexyl(tetradecyl)phosphonium chloride]: 864.4
CCCC[N+](C)(C)C.O=S(=O)([N-]S(=O)(=O)C(F)(F)F)C(F)(F)F [butyltrimethylammonium bis(trifluoromethylsulfonyl)imide]: 1343.9

Q: Write down mass density measured for item CCCCCC[N+](CC)(CC)CC.O=S(=O)([N-]S(=O)(=O)C(F)(F)F)C(F)(F)F [triethylhexylammonium bis((trifluoromethyl)sulfonyl)imide]
Result: 1253

* * *

conditions: 308.15 K; 101.33 kPa; Liquid; Pycnometric method
Assign labels as follows, please: condition met for mass density below 1000 kg/m3; condition not met for mass density equal to or exceeding 1000 kg/m3.

CCCCCC[N+](CC)(CC)CC.O=S(=O)([N-]S(=O)(=O)C(F)(F)F)C(F)(F)F [triethylhexylammonium bis((trifluoromethyl)sulfonyl)imide]: condition not met
CCCCCCCCCCCCCC[P+](CCCCCC)(CCCCCC)CCCCCC.[Cl-] [trihexyl(tetradecyl)phosphonium chloride]: condition met
CCCCCCCCCCCCCC[P+](CCCCCC)(CCCCCC)CCCCCC.O=S(=O)([N-]S(=O)(=O)C(F)(F)F)C(F)(F)F: condition not met
CCCCCC[N+](C)(C)CCC.O=S(=O)([N-]S(=O)(=O)C(F)(F)F)C(F)(F)F: condition not met
CCCCCCCCCC[N+](C)(C)C.O=S(=O)([N-]S(=O)(=O)C(F)(F)F)C(F)(F)F: condition not met

Now let's try a different one.
Q: For this compound, is mass density lower than 1000 kg/m3? CCCC[N+](C)(C)C.O=S(=O)([N-]S(=O)(=O)C(F)(F)F)C(F)(F)F [butyltrimethylammonium bis(trifluoromethylsulfonyl)imide]
Result: condition not met

* * *

Examples of molecules with documented mass density follow.
conditions: 298.15 K; 101.33 kPa; Liquid; Pycnometric method
Kindly answer with a numeric value in kg/m3, unit omitted.

The following molecules have reported results that may help.
CCCCCCCCCCCCCC[P+](CCCCCC)(CCCCCC)CCCCCC.N#C[N-]C#N [tetradecyl(trihexyl)phosphonium dicyanamide]: 920.9
CCCC[P+](CC)(CCCC)CCCC.CCOP(=O)([O-])OCC [tributylethylphosphonium diethylphosphate]: 997.8
CCCCCCCCCCCCCC[P+](CCCCCC)(CCCCCC)CCCCCC.[Cl-] [trihexyl(tetradecyl)phosphonium chloride]: 882.6
CCCCCC[N+](C)(C)CCC.O=S(=O)([N-]S(=O)(=O)C(F)(F)F)C(F)(F)F: 1284.6

Q: Return mass density (reported value) for this molecule: CCCCCC[N+](C)(C)C.O=S(=O)([N-]S(=O)(=O)C(F)(F)F)C(F)(F)F [hexyltrimethylammonium bis[(trifluoromethyl)sulfonyl]imide]
Result: 1310.6

Q: Please indicate mass density recorded for CCCCCCCCCC[N+](C)(C)C.O=S(=O)([N-]S(=O)(=O)C(F)(F)F)C(F)(F)F
Result: 1226.3

Q: Respond only with mass density recorded for CCCCCCCC[N+](C)(CCCCCCCC)CCCCCCCC.O=S(=O)([N-]S(=O)(=O)C(F)(F)F)C(F)(F)F
Result: 1082.3

Q: Specify mass density for CCCC[N+](C)(C)C.O=S(=O)([N-]S(=O)(=O)C(F)(F)F)C(F)(F)F [butyltrimethylammonium bis(trifluoromethylsulfonyl)imide] and stop.
Result: 1374.7

Q: Give the reported value of mass density for this record: CCCCCCCCCCCCCC[P+](CCCC)(CCCC)CCCC.CCCCCCCCCCCCc1ccccc1S(=O)(=O)[O-] [tributyl(tetradecyl)phosphonium 2-dodecylbenzenesulfonate]
Result: 938.4

Q: Fill in reported mass density for this entry: CCCCCCCCCCCCCC[P+](CCCCCC)(CCCCCC)CCCCCC.O=S(=O)([N-]S(=O)(=O)C(F)(F)F)C(F)(F)F
Result: 1050.1

Q: Report measured mass density; entry is CCCCCC[N+](CC)(CC)CC.O=S(=O)([N-]S(=O)(=O)C(F)(F)F)C(F)(F)F [triethylhexylammonium bis((trifluoromethyl)sulfonyl)imide]
Result: 1279.3

* * *

Let's look at some molecules and their measured mass density.
conditions: 328.15 K; 101.33 kPa; Liquid; Pycnometric method
Numbers after ± are expanded uncertainties.

Take a look at these entries with their results.
CCCCCC[N+](C)(C)C.O=S(=O)([N-]S(=O)(=O)C(F)(F)F)C(F)(F)F [hexyltrimethylammonium bis[(trifluoromethyl)sulfonyl]imide]: 1287.9 ± 26 kg/m3
CCCCCC[N+](C)(C)CCC.O=S(=O)([N-]S(=O)(=O)C(F)(F)F)C(F)(F)F: 1266 ± 26 kg/m3
CCCCCCCCCCCCCC[P+](CCCCCC)(CCCCCC)CCCCCC.N#C[N-]C#N [tetradecyl(trihexyl)phosphonium dicyanamide]: 905 ± 25 kg/m3
CCCC[N+](C)(C)C.O=S(=O)([N-]S(=O)(=O)C(F)(F)F)C(F)(F)F [butyltrimethylammonium bis(trifluoromethylsulfonyl)imide]: 1349.7 ± 27 kg/m3
CCCCCCCCCCCCCC[P+](CCCCCC)(CCCCCC)CCCCCC.O=S(=O)([N-]S(=O)(=O)C(F)(F)F)C(F)(F)F: 1032.9 ± 25 kg/m3
CCCCCCCCCC[N+](C)(C)C.O=S(=O)([N-]S(=O)(=O)C(F)(F)F)C(F)(F)F: 1204.7 ± 26 kg/m3

// moving on: another record for mass density
Q: Identify measured mass density corresponding to CCCCCCCC[N+](C)(CCCCCCCC)CCCCCCCC.O=S(=O)([N-]S(=O)(=O)C(F)(F)F)C(F)(F)F
Result: 1063.9 ± 26 kg/m3
